Data origin, for the record: the supplement of paper PMC5998384

System: HeLa Kyoto
experiment_notes: solubility in G1/S (NP-40 vs SDS abundance) (log2 ratio); higher = more soluble
applied_conditions: cell cycle stage: G1/S
Quick list: solubility in G1/S (log2) per entry.
The response must contain the number and no unit.

Return solubility in G1/S (log2) measured with HeLa Kyoto given this sequence: MGLFGKTQEKPPKELVNEWSLKIRKEMRVVDRQIRDIQREEEKVKRSVKDAAKKGQKDVCIVLAKEMIRSRKAVSKLYASKAHMNSVLMGMKNQLAVLRVAGSLQKSTEVMKAMQSLVKIPEIQATMRELSKEMMKAGIIEEMLEDTFESMDDQEEMEEEAEMEIDRILFEITAGALGKAPSKVTDALPEPEPPGAMAASEDEEEEEEALEAMQSRLATLRS [CHMP3] 0.866

Missing value: solubility in G1/S (log2), HeLa Kyoto, entry MAKISSPTETERCIESLIAVFQKYAGKDGYNYTLSKTEFLSFMNTELAAFTKNQKDPGVLDRMMKKLDTNSDGQLDFSEFLNLIGGLAMACHDSFLKAVPSQKRT [S100A11] . Fill in? -1.04

###

Reported melting temperature is given for each of the following sequences.
System: HeLa Kyoto
experiment_notes: melting temperature (median over replicates), in situ; higher = more thermally stable
applied_conditions: cell cycle stage: mitosis
Please state the figure in °C; there is no need to write the unit.

Would you please look over these solved cases?
sequence	target_or_system	melting temperature [°C]
MTVARPSVPAALPLLGELPRLLLLVLLCLPAVWGDCGLPPDVPNAQPALEGRTSFPEDTVITYKCEESFVKIPGEKDSVICLKGSQWSDIEEFCNRSCEVPTRLNSASLKQPYITQNYFPVGTVVEYECRPGYRREPSLSPKLTCLQNLKWSTAVEFCKKKSCPNPGEIRNGQIDVPGGILFGATISFSCNTGYKLFGSTSSFCLISGSSVQWSDPLPECREIYCPAPPQIDNGIIQGERDHYGYRQSVTYACNKGFTMIGEHSIYCTVNNDEGEWSGPPPECRGKSLTSKVPPTVQKPTTVNVPTTEVSPTSQKTTTKTTTPNAQATRSTPVSRTTKHFHETTPNKGSGTTSGTTRLLSGHTCFTLTGLLGTLVTMGLLT [CD55]	HeLa Kyoto	63.9
MANRTVKDAHSIHGTNPQYLVEKIIRTRIYESKYWKEECFGLTAELVVDKAMELRFVGGVYGGNIKPTPFLCLTLKMLQIQPEKDIIVEFIKNEDFKYVRMLGALYMRLTGTAIDCYKYLEPLYNDYRKIKSQNRNGEFELMHVDEFIDELLHSERVCDIILPRLQKRYVLEEAEQLEPRVSALEEDMDDVESSEEEEEEDEKLERVPSPDHRRRSYRDLDKPRRSPTLRYRRSRSRSPRRRSRSPKRRSPSPRRERHRSKSPRRHRSRSRDRRHRSRSKSPGHHRSHRHRSHSKSPERSKKSHKKSRRGNE [PRPF38A]	HeLa Kyoto	48.6

Now look at this one.
Which measured melting temperature belongs to MLSLDFLDDVRRMNKRQLYYQVLNFGMIVSSALMIWKGLMVITGSESPIVVVLSGSMEPAFHRGDLLFLTNRVEDPIRVGEIVVFRIEGREIPIVHRVLKIHEKQNGHIKFLTKGDNNAVDDRGLYKQGQHWLEKKDVVGRARGFVPYIGIVTILMNDYPKFKYAVLFLLGLFVLVHRE [SEC11A] , tested on HeLa Kyoto? 52.3

###

System: HeLa Kyoto
experiment_notes: thermal stability score vs G1/S (z-score of summed log2 fold changes over temperatures); higher = more thermally stable than in G1/S
applied_conditions: cell cycle stage: mitosis
parameter: thermal stability score
Write the value as a bare number.

sequence	measured_number
MSHGHSHGGGGCRCAAEREEPPEQRGLAYGLYLRIDLERLQCLNESREGSGRGVFKPWEERTDRSKFVESDADEELLFNIPFTGNVKLKGIIIMGEDDDSHPSEMRLYKNIPQMSFDDTEREPDQTFSLNRDLTGELEYATKISRFSNVYHLSIHISKNFGADTTKVFYIGLRGEWTELRRHEVTICNYEASANPADHRVHQVTPQTHFIS [PITHD1]	-2.51

Record request: thermal stability score value, item MDTPPLSDSESESDESLVTDRELQDAFSRGLLKPGLNVVLEGPKKAVNDVNGLKQCLAEFKRDLEWVERLDVTLGPVPEIGGSEAPAPQNKDQKAVDPEDDFQREMSFYRQAQAAVLAVLPRLHQLKVPTKRPTDYFAEMAKSDLQMQKIRQKLQTKQAAMERSEKAKQLRALRKYGKKVQTEVLQKRQQEKAHMMNAIKKYQKGFSDKLDFLEGDQKPLAQRKKAGAKGQQMRKGPSAKRRYKNQKFGFGGKKKGSKWNTRESYDDVSSFRAKTAHGRGLKRPGKKGSNKRPGKRTREKMKNRTH [EBNA1BP2] 0.121

Using the record for MAEKFDCHYCRDPLQGKKYVQKDGHHCCLKCFDKFCANTCVECRKPIGADSKEVHYKNRFWHDTCFRCAKCLHPLANETFVAKDNKILCNKCTTREDSPKCKGCFKAIVAGDQNVEYKGTVWHKDCFTCSNCKQVIGTGSFFPKGEDFYCVTCHETKFAKHCVKCNKAITSGGITYQDQPWHADCFVCVTCSKKLAGQRFTAVEDQYYCVDCYKNFVAKKCAGCKNPITGKRTVSRVSHPVSKARKPPVCHGKRLPLTLFPSANLRGRHPGGERTCPSWVVVLYRKNRSLAAPRGPGLVKAPVWWPMKDNPGTTTASTAKNAP [FHL1] , report its thermal stability score. -3.17

Report thermal stability score for MSDVEENNFEGRESRSQSKSPTGTPARVKSESRSGSRSPSRVSKHSESHSRSRSKSRSRSRRHSHRRYTRSRSHSHSHRRRSRSRSYTPEYRRRRSRSHSPMSNRRRHTGSRANPDPNTCLGVFGLSLYTTERDLREVFSRYGPLSGVNVVYDQRTGRSRGFAFVYFERIDDSKEAMERANGMELDGRRIRVDYSITKRAHTPTPGIYMGRPTHSGGGGGGGGGGGGGGGGRRRDSYYDRGYDRGYDRYEDYDYRYRRRSPSPYYSRYRSRSRSRSYSPRRY [TRA2A] please. 1.92

Quick check: thermal stability score of MAAQKINEGLEHLAKAEKYLKTGFLKWKPDYDSAASEYGKAAVAFKNAKQFEQAKDACLREAVAHENNRALFHAAKAYEQAGMMLKEMQKLPEAVQLIEKASMMYLENGTPDTAAMALERAGKLIENVDPEKAVQLYQQTANVFENEERLRQAVELLGKASRLLVRGRRFDEAALSIQKEKNIYKEIENYPTCYKKTIAQVLVHLHRNDYVAAERCVRESYSIPGFNGSEDCAALEQLLEGYDQQDQDQVSDVCNSPLFKYMDNDYAKLGLSLVVPGGGIKKKSPATPQAKPDGVTATAADEEEDEYSGGLC [NAPG] ? 0.117

What thermal stability score value was documented for this sequence, MSLEQEEETQPGRLLGRRDAVPAFIEPNVRFWITERQSFIRRFLQWTELLDPTNVFISVESIENSRQLLCTNEDVSSPASADQRIQEAWKRSLATVHPDSSNLIPKLFRPAAFLPFMAPTVFLSMTPLKGIKSVILPQVFLCAYMAAFNSINGNRSYTCKPLERSLLMAGAVASSTFLGVIPQFVQMKYGLTGPWIKRLLPVIFLVQASGMNVYMSRSLESIKGIAVMDKEGNVLGHSRIAGTKAVRETLASRIVLFGTSALIPEVFTYFFKRTQYFRKNPGSLWILKLSCTVLAMGLMVPFSFSIFPQIGQIQYCSLEEKIQSPTEETEIFYHRGV [SFXN4] ? -1.77

Query (sequence): MSVRVARVAWVRGLGASYRRGASSFPVPPPGAQGVAELLRDATGAEEEAPWAATERRMPGQCSVLLFPGQGSQVVGMGRGLLNYPRVRELYAAARRVLGYDLLELSLHGPQETLDRTVHCQPAIFVASLAAVEKLHHLQPSVIENCVAAAGFSVGEFAALVFAGAMEFAEGLYAVKIRAEAMQEASEAVPSGMLSVLGQPQSKFNFACLEAREHCKSLGIENPVCEVSNYLFPDCRVISGHQEALRFLQKNSSKFHFRRTRMLPVSGAFHTRLMEPAVEPLTQALKAVDIKKPLVSVYSNVHAHRYRHPGHIHKLLAQQLVSPVKWEQTMHAIYERKKGRGFPQTFEVGPGRQLGAILKSCNMQAWKSYSAVDVLQTLEHVDLDPQEPPR [MT] ; field requested: thermal stability score -2.45

So what's the measured thermal stability score for this one? MPLPVALQTRLAKRGILKHLEPEPEEEIIAEDYDDDPVDYEATRLEGLPPSWYKVFDPSCGLPYYWNADTDLVSWLSPHDPNSVVTKSAKKLRSSNADAEEKLDRSHDKSDRGHDKSDRSHEKLDRGHDKSDRGHDKSDRDRERGYDKVDRERERDRERDRDRGYDKADREEGKERRHHRREELAPYPKSKKAVSRKDEELDPMDPSSYSDAPRGTWSTGLPKRNEAKTGADTTAAGPLFQQRPYPSPGAVLRANAEASRTKQQD [PQBP1] -4.26

Look up thermal stability score: MAFVTRQFMRSVSSSSTASASAKKIIVKHVTVIGGGLMGAGIAQVAAATGHTVVLVDQTEDILAKSKKGIEESLRKVAKKKFAENLKAGDEFVEKTLSTIATSTDAASVVHSTDLVVEAIVENLKVKNELFKRLDKFAAEHTIFASNTSSLQITSIANATTRQDRFAGLHFFNPVPVMKLVEVIKTPMTSQKTFESLVDFSKALGKHPVSCKDTPGFIVNRLLVPYLMEAIRLYERGDASKEDIDTAMKLGAGYPMGPFELLDYVGLDTTKFIVDGWHEMDAENPLHQPSPSLNKLVAENKFGKKTGEGFYKYK [HADH] -1.2
